FYI, the data here is from patent US20050064507A1.

biological target: AKT1 (Homo sapiens); construct: purchased Panvera; assay: In vitro kinase assay: peptide phosphorylation by AKT1; assay type: biochemical; conditions: normalized to best substrate
Sequence (P31749 whole entry, species assumed): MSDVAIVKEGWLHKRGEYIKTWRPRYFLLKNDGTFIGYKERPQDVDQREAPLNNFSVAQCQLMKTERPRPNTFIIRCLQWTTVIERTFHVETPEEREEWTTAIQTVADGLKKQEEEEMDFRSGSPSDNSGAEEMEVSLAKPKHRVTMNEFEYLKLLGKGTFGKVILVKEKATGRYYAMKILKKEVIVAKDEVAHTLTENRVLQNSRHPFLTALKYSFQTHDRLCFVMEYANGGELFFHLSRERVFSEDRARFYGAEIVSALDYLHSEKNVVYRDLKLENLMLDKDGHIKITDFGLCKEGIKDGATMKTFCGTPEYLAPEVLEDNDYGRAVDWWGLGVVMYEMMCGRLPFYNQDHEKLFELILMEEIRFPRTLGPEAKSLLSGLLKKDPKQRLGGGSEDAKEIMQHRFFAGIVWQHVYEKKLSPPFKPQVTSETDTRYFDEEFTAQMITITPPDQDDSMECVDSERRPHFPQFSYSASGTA
Assign yes to entries whose AKT1 phosphorylation meets or exceeds 6%; assign no to the rest.

Previously resolved entries follow.
substance="87 (RQGKRKTSIKRDTVNPL) [compound 87]" assigned_category=yes
substance="79 (NRKKKRTSFKRKA) [compound 79]" assigned_category=yes
substance="98 (AGPLRKSSLKKGGRL) [compound 98]" assigned_category=yes
substance="100 (WKGKRRSKARKKRK) [compound 100]" assigned_category=no
substance="103 (LLKKRDSFRTPRDSKLE) [compound 103]" assigned_category=yes
substance="104 (EKIKRSSLKKVDSLKK) [compound 104]" assigned_category=no
substance="82 (PRLIRRGSKKRPAR) [compound 82]" assigned_category=yes
substance="84 (QKKSRLRRRASQLKI) [compound 84]" assigned_category=yes
substance="93 (AARKKRISVKKKQEQ) [compound 93]" assigned_category=yes
substance="101 (GAPPRRSSIRNAH) [compound 101]" assigned_category=yes

Problem: Please indicate if the recorded AKT1 phosphorylation for 107 (QKRHARVTVKYDRRE) [compound 107] meets or exceeds 6%.
Solution: no

Problem: Please indicate if the recorded AKT1 phosphorylation for 91 (VHYTSKDTLRKRHYWR) [compound 91] meets or exceeds 6%.
Solution: no

Problem: Please indicate if the recorded AKT1 phosphorylation for 112 (KRPGKKGSNKRPGKR) [compound 112] meets or exceeds 6%.
Solution: no

Problem: Please indicate if the recorded AKT1 phosphorylation for 76 (HVRRRRGTFKRSKLRARD) [compound 76] meets or exceeds 6%.
Solution: yes

Problem: Please indicate if the recorded AKT1 phosphorylation for 94 (KLAVGRHSFSRRSGV) [compound 94] meets or exceeds 6%.
Solution: yes

Problem: Please indicate if the recorded AKT1 phosphorylation for 96 (RGFLRSASLGRRASFHLE) [compound 96] meets or exceeds 6%.
Solution: yes

Problem: Please indicate if the recorded AKT1 phosphorylation for 95 (KKKFRTPSFLKKSKK) [compound 95] meets or exceeds 6%.
Solution: yes

Problem: Please indicate if the recorded AKT1 phosphorylation for 110 (EGGDRRASGRRK) [compound 110] meets or exceeds 6%.
Solution: no

----------
Measured in vitro phosphorylation by PKC-delta values by entry
biological target: PKC-delta (Homo sapiens); construct: purchased Calbiochem; experiment: In vitro kinase assay: peptide phosphorylation by PKC-delta; assay type: biochemical; conditions: peptide concentration of 10 nM; percentage of phosphorylation of the best validating peptide substrate
Sequence (Q05655 whole entry): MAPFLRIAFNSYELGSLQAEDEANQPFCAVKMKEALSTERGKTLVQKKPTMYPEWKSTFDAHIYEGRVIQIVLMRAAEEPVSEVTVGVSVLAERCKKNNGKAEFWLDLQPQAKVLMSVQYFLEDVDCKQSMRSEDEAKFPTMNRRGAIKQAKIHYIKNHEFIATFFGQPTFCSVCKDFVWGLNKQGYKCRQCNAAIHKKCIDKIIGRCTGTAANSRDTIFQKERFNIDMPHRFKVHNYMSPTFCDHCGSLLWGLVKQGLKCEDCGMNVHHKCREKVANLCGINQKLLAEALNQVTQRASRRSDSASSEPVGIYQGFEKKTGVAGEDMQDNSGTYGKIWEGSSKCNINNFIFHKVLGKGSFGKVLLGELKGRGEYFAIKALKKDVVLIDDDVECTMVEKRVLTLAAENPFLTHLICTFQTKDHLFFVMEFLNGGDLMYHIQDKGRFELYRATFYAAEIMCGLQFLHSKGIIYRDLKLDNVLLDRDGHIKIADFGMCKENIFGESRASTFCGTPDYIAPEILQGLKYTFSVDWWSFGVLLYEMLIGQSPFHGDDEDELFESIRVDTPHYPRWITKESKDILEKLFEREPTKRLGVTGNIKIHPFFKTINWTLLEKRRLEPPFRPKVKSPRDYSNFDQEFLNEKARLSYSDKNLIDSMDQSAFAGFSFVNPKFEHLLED
Quick note: give the figure in %, leave out the unit.

substance="21 (KLAVGRHSFSRRSGV) [compound 21]" numeric_readout=12
substance="40 (NMEAKKLSKDRMKKY) [compound 40]" numeric_readout=3
substance="43 (AWVTVHEKKSSRKSEYL) [compound 43]" numeric_readout=3

--- query ---
Problem: Quick one: Measured in vitro phosphorylation by PKC-delta of 56 (EARLGAASLKFGARD) [compound 56] ?
Solution: 2

----------
Biological target: PKC-zeta (Homo sapiens, UniProt Q05513)
Construct: purchased Calbiochem
Sequence (Q05513 1-592): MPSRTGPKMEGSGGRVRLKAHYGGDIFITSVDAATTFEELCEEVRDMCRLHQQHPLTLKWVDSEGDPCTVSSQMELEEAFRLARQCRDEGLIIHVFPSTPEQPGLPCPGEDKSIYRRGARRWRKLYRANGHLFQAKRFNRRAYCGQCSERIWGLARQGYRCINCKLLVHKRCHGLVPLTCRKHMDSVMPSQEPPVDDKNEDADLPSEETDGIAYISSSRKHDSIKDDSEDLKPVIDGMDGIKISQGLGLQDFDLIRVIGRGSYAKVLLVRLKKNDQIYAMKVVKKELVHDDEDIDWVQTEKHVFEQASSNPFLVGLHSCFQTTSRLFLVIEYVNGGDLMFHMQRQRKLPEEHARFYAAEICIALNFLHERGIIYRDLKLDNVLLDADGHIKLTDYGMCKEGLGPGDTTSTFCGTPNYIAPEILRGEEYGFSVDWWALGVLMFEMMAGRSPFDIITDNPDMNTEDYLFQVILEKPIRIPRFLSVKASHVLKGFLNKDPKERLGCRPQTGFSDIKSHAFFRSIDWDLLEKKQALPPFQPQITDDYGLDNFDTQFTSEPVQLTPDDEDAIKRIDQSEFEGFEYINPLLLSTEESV
Experiment: In vitro kinase assay: peptide phosphorylation by PKC-zeta
Assay type: biochemical
Conditions: peptide concentration 10 uM
phosphorylation by PKC zeta values by entry
Would you mind answering with just the numeric figure?

substance="146 (QAQRQIKRGAPPRRSSIRNA) [compound 146]" system_tested="PKC-zeta (Homo sapiens, UniProt Q05513)" numeric_readout=56
substance="160 (PFEVVWYKDKRQLRSSKKYK) [compound 160]" system_tested="PKC-zeta (Homo sapiens, UniProt Q05513)" numeric_readout=57
substance="118 (RPQNTLKASKKKKRASFKRK) [compound 118]" system_tested="PKC-zeta (Homo sapiens, UniProt Q05513)" numeric_readout=57
substance="162 (KKKFSFKKPFKLSGLSFKRN) [compound 162]" system_tested="PKC-zeta (Homo sapiens, UniProt Q05513)" numeric_readout=4
substance="163 (PPRTPGWHQLQPRRVSFRGE) [compound 163]" system_tested="PKC-zeta (Homo sapiens, UniProt Q05513)" numeric_readout=26

Problem: Quick one: phosphorylation by PKC zeta of 151 (PQNSLKASNRKKKRTSFKRK) [compound 151] ?
Solution: 28

Problem: Quick one: phosphorylation by PKC zeta of 140 (TELEGGFSRQRKRKLSFRRR) [compound 140] ?
Solution: 49

Problem: Quick one: phosphorylation by PKC zeta of 121 (LRRRSLRRSNSISKSPGP) [compound 121] ?
Solution: 56

Problem: Quick one: phosphorylation by PKC zeta of 154 (KKFFTQGWAGWRKKTSFRKP) [compound 154] ?
Solution: 23

Problem: Quick one: phosphorylation by PKC zeta of 129 (VQRHRSMRKTFARYLSFRRD) [compound 129] ?
Solution: 31

Problem: Quick one: phosphorylation by PKC zeta of 127 (SQVQKQRSAGSFKRNSIKKI) [compound 127] ?
Solution: 19

Problem: Quick one: phosphorylation by PKC zeta of 131 (WKGKRRSKARKKRK) [compound 131] ?
Solution: 6

Problem: Quick one: phosphorylation by PKC zeta of 159 (LYARLARAYRRSQRASFKRA) [compound 159] ?
Solution: 41

----------
Target: PKC-zeta (Homo sapiens)
Construct: purchased Calbiochem
Sequence (Q05513 1-592): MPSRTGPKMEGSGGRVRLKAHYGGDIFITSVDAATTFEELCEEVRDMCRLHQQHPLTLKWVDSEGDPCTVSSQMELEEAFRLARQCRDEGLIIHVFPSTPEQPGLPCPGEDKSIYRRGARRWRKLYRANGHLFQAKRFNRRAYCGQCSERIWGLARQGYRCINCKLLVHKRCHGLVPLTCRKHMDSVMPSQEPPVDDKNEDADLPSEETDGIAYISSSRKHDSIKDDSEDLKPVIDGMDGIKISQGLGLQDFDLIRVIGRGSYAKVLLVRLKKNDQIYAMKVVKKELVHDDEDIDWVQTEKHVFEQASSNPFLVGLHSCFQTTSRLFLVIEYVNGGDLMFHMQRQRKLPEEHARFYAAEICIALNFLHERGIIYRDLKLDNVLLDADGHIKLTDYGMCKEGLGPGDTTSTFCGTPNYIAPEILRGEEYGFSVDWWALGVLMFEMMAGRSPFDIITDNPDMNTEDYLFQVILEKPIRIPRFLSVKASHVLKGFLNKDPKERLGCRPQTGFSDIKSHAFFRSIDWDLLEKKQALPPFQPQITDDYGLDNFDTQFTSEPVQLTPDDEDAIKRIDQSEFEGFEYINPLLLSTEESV
Experiment: In vitro kinase assay: peptide phosphorylation by PKC-zeta
Format: biochemical
Details: peptide concentration 1 uM
# note: boundary value 20 maps to no; phosphorylation by PKC zeta below it maps to yes

Previously resolved entries follow.
substance="138 (EYLERRASRRRAV) [compound 138]" assigned_category=no
substance="142 (ERHVAQKKSRLRRRASQLKI) [compound 142]" assigned_category=no
substance="156 (SAQITIPKDGQKRKKSLRKK) [compound 156]" assigned_category=yes

Problem: API: query returns whether the substance falls strictly under 20 in phosphorylation by PKC zeta. Query: 137 (PSKSPSKKKKKFRTPSFLKK) [compound 137]
Solution: yes

Problem: API: query returns whether the substance falls strictly under 20 in phosphorylation by PKC zeta. Query: 134 (RSRSRSRSKSKDKRKSRKRS) [compound 134]
Solution: yes

Problem: API: query returns whether the substance falls strictly under 20 in phosphorylation by PKC zeta. Query: 146 (QAQRQIKRGAPPRRSSIRNA) [compound 146]
Solution: no
